Experiment: NCI Yeast Anticancer Drug Screen. Data for the bub3 strain (AID 167)
Details: S. cerevisiae bub3 mutant strain, hits give high values; at 50.0 µM unless noted
This is part of a sample that, as a whole, favours compounds with a hit. Of some 79,000 tested, about 15% had one in any assay.
Quick reference for growth inhibition among some compounds
Property Label: growth inhibition (%)

[
  {
    "Compound": "CC12CC(=O)OC1(C)C1CCC2C1 (stereo unspecified)",
    "Property Label": "growth inhibition",
    "Reading": -10.2
  },
  {
    "Compound": "O=C1CSC(c2ccc([N+](=O)[O-])cc2)N1c1ccc(-n2c(-c3ccccc3)nc3ccccc3c2=O)cc1 (stereo unspecified)",
    "Property Label": "growth inhibition",
    "Reading": 30
  },
  {
    "Compound": "CC(C)NS(=O)(=O)OCC(O)(CC(Cl)(Cl)Cl)c1ccccc1 (stereo unspecified)",
    "Property Label": "growth inhibition",
    "Reading": 11.7
  },
  {
    "Compound": "CC1(C)N=C(C(N)=O)c2ncn(Cc3ccccc3)c2N1",
    "Property Label": "growth inhibition",
    "Reading": -8.1
  },
  {
    "Compound": "COC1C(OC(=O)c2ccc(C)[nH]2)C(O)C(Oc2ccc3c(O)c(NC(=O)c4c[nH]c(C(=O)Nc5c(O)c6ccc(OC7OC(C)(C)C(OC)C(OC(=O)c8ccc(C)[nH]8)C7O)c(C)c6oc5=O)c4C)c(=O)oc3c2C)OC1(C)C (stereo unspecified)",
    "Property Label": "growth inhibition",
    "Reading": 11.4
  },
  {
    "Compound": "CC1CC(=O)C(CC(=O)O)C1C(C(=O)C(=O)Nc1c(C#N)cccc1[N+](=O)[O-])[N+](=O)[O-] (stereo unspecified)",
    "Property Label": "growth inhibition",
    "Reading": -43.8
  },
  {
    "Compound": "CN(C)/C=N/NC(=O)/C(C#N)=C/N(C)C",
    "Property Label": "growth inhibition",
    "Reading": -45.1
  },
  {
    "Compound": "O=C(Nc1cccc(I)c1)OCCCl",
    "Property Label": "growth inhibition",
    "Reading": -7.55
  },
  {
    "Compound": "O=C1C2C(c3ccccc3)NC(c3ccccc3)C1C(c1ccccc1)NC2c1ccccc1 (stereo unspecified)",
    "Property Label": "growth inhibition",
    "Reading": -65
  },
  {
    "Compound": "Nc1c(Cl)ncnc1Nc1ccc(CCO)cc1",
    "Property Label": "growth inhibition",
    "Reading": -4.4
  },
  {
    "Compound": "CSc1nc(C)cc(=O)[nH]1",
    "Property Label": "growth inhibition",
    "Reading": 5.5
  },
  {
    "Compound": "[N-]=[N+]=C(C(=O)CN1CCCC1=O)S(=O)(=O)c1ccccc1",
    "Property Label": "growth inhibition",
    "Reading": -2.85
  },
  {
    "Compound": "CCN(CC)c1ccc2c(c1)C(=O)c1ccccc1-2",
    "Property Label": "growth inhibition",
    "Reading": 38.8
  },
  {
    "Compound": "COc1cc(OC)c(/C=N/N=C(\\N)NO)c(OC)c1",
    "Property Label": "growth inhibition",
    "Reading": -1.15
  },
  {
    "Compound": "CN(C)CCCNC(=O)N/N=C/c1ccccc1",
    "Property Label": "growth inhibition",
    "Reading": -39.7
  },
  {
    "Compound": "NC(=O)c1ncc(Cl)cc1Cl",
    "Property Label": "growth inhibition",
    "Reading": 0.55
  },
  {
    "Compound": "O=C(O)c1cccc(C(=O)O)c1Sc1ccccc1",
    "Property Label": "growth inhibition",
    "Reading": -0.1
  },
  {
    "Compound": "C=CC[Si](CC=C)(OCC)OCC",
    "Property Label": "growth inhibition",
    "Reading": -6.9
  },
  {
    "Compound": "CCOC(=O)C(NC(=O)CC)(Nc1ccc(S(=O)(=O)Nc2nc(C)cc(C)n2)cc1)C(F)(F)F (stereo unspecified)",
    "Property Label": "growth inhibition",
    "Reading": 2.5
  },
  {
    "Compound": "O=C1CN(c2cccc(C(F)(F)F)c2)C(=O)CN1/N=C/c1cccnc1",
    "Property Label": "growth inhibition",
    "Reading": 27.9
  },
  {
    "Compound": "O=C1c2ccccc2C(=O)c2c3c(cc(NCCNCCO)c21)N(CCO)CCN3",
    "Property Label": "growth inhibition",
    "Reading": 34.8
  },
  {
    "Compound": "CC1CC1C(N)C1CC1C (stereo unspecified)",
    "Property Label": "growth inhibition",
    "Reading": 10.8
  },
  {
    "Compound": "Cc1cccc2ccc(-c3cc4ccccc4s3)nc12",
    "Property Label": "growth inhibition",
    "Reading": -10.2
  },
  {
    "Compound": "CS(=O)(=O)Nc1c(-c2ccccc2)oc2ccccc2c1=O",
    "Property Label": "growth inhibition",
    "Reading": 11.3
  },
  {
    "Compound": "CC(=O)OC1CC2C3CCc4cc(O)ccc4C3CCC2(C)C1 (stereo unspecified)",
    "Property Label": "growth inhibition",
    "Reading": -0.05
  },
  {
    "Compound": "COc1cc2c(cc1OC)C1CC3(CCN1CC2)CC(=O)NC3=O (stereo unspecified)",
    "Property Label": "growth inhibition",
    "Reading": -11.9
  },
  {
    "Compound": "CC(C)C(=O)NS(=O)(=O)c1ccccc1",
    "Property Label": "growth inhibition",
    "Reading": -14.4
  },
  {
    "Compound": "CCOC(C)(Cc1ccccc1[N+](=O)[O-])OCC",
    "Property Label": "growth inhibition",
    "Reading": -3.6
  },
  {
    "Compound": "CC(=O)OCc1c(COC(C)=O)c(-c2ccc(Cl)cc2)n2c1CCC2",
    "Property Label": "growth inhibition",
    "Reading": 9.6
  },
  {
    "Compound": "O=c1n(-c2ccccc2)c(=O)n(-c2ccccc2)c(=O)n1-c1ccccc1",
    "Property Label": "growth inhibition",
    "Reading": 7.45
  },
  {
    "Compound": "CC(=O)Nc1nc(SCc2ccccc2)c2[nH]cnc2n1",
    "Property Label": "growth inhibition",
    "Reading": 31.2
  },
  {
    "Compound": "OC1C(SCc2ccccc2)OCC2OC3(CCCCC3)OC21 (stereo unspecified)",
    "Property Label": "growth inhibition",
    "Reading": 1.75
  },
  {
    "Compound": "O=C1/C(=C\\c2ccccc2)Sc2cc[nH]c21",
    "Property Label": "growth inhibition",
    "Reading": -1.85
  },
  {
    "Compound": "CC1=Nc2ccc([N+](=O)[O-])cc2C1(C)C",
    "Property Label": "growth inhibition",
    "Reading": -16.1
  },
  {
    "Compound": "Nc1nc(=S)[nH]c(=S)[nH]1",
    "Property Label": "growth inhibition",
    "Reading": 17.2
  },
  {
    "Compound": "CN1N=C(c2ccncc2)OC1c1cccc(F)c1 (stereo unspecified)",
    "Property Label": "growth inhibition",
    "Reading": 4.9
  },
  {
    "Compound": "CC(=O)c1ccc(N=CC2CCCCC2=O)cc1 (stereo unspecified)",
    "Property Label": "growth inhibition",
    "Reading": -2.9
  },
  {
    "Compound": "O=C(O)CCSCCC(=O)O",
    "Property Label": "growth inhibition",
    "Reading": -13.6
  },
  {
    "Compound": "C/C(=N\\NC(=S)Nc1ccccc1)[C@H]1C2CCC(C2)C1C/C=C\\CCCC(=O)O (stereo partly specified)",
    "Property Label": "growth inhibition",
    "Reading": 37.5
  },
  {
    "Compound": "COc1cc2c(cc1OC)C1C(C)c3ccc(OC)c(OC)c3CN1CC2 (stereo unspecified)",
    "Property Label": "growth inhibition",
    "Reading": -29.6
  },
  {
    "Compound": "O=C(Cc1ccccc1)NCCCN(CCCCN(CCCNC(=O)Cc1ccccc1)C(=O)OCc1ccccc1)C(=O)OCc1ccccc1",
    "Property Label": "growth inhibition",
    "Reading": -0.85
  },
  {
    "Compound": "Cc1ccc(NC(=O)N(C)C)c(C)c1",
    "Property Label": "growth inhibition",
    "Reading": 16.4
  },
  {
    "Compound": "CC(C)CCC[C@@H](C)[C@H]1CC[C@H]2[C@@H]3CCC4=CC(=O)NCC[C@]4(C)[C@H]3CC[C@]12C",
    "Property Label": "growth inhibition",
    "Reading": -9.35
  },
  {
    "Compound": "CCN(CC)c1ccc(C(c2ccc(N(CC)CC)cc2Cl)c2cccc3ccccc23)c(Cl)c1",
    "Property Label": "growth inhibition",
    "Reading": 22.4
  },
  {
    "Compound": "CCOC(=O)CNC(=O)C(CCC(=O)N(C)O)NC(=O)CCC(N)C(=O)O (stereo unspecified)",
    "Property Label": "growth inhibition",
    "Reading": 4.25
  },
  {
    "Compound": "Cn1cnc([N+](=O)[O-])c1Sc1ncc[nH]1",
    "Property Label": "growth inhibition",
    "Reading": 9.7
  }
]
